- measurement.protocol: Rat plasma Cmax of antagonists given with buprenorphine
- condition.description: male, sc, 0.1 mg/kg
readout.name: Cmax
For clarity, give the value followed by its unit.

# annotated cases, reported Cmax shown
> print(dat)
                                   compound  readout.name      result
1  C=C1CC[C@@]2(O)[C@H]3Cc4ccc(O)c5c4[C@@]2(CCN3CC2CC2)[C@H]1O5          Cmax  14.1 ng/mL
2  O=C1CC[C@@]2(O)[C@H]3Cc4ccc(O)c5c4[C@@]2(CCN3CC2CC2)[C@H]1O5 [Naltrexone, naltrexone]          Cmax  19.3 ng/mL

Alright, here's another compound for you.
Item "C=C1CC[C@@]2(O)[C@H]3Cc4ccc(C(N)=O)c(O)c4[C@@]2(CCN3CC2CC2)C1" has what recorded Cmax?
18.1 ng/mL

* * *

- measurement.protocol: Rat plasma Cmax of antagonists given with buprenorphine
- condition.description: male, sc, 0.3 mg/kg
Exercise: for every item that follows, state its recorded Cmax.
Numbers only, in ng/mL.

Below, 3 molecules whose answers are already recorded.
> print(dat)
                                   molecule  readout.name  numeric.readout
1  O=C1CC[C@@]2(O)[C@H]3Cc4ccc(O)c5c4[C@@]2(CCN3CC2CC2)[C@H]1O5 [Naltrexone, naltrexone]          Cmax             76.9
2  C=C1CC[C@@]2(O)[C@H]3Cc4ccc(O)c5c4[C@@]2(CCN3CC2CC2)[C@H]1O5 [Nalmefene, nalmefene]          Cmax             25.6
3  C=C1CC[C@@]2(O)[C@H]3Cc4ccc(C(N)=O)c(O)c4[C@@]2(CCN3CC2CC2)C1 [Compound-10]          Cmax             29.5

Now take the following molecule into account.
Sample NC(=O)c1ccc2c(c1O)[C@]13CCN(CC4CC4)[C@H](C2)[C@]1(O)CCC(=O)C3 [Compound-1] — what was its Cmax?
11.8

* * *

- measurement.protocol: Plasma Cmax in patients (LC/MS/MS)
- condition.description: human, other: sublingual, 8 mg
readout.name: Cmax (nM)
Numbers only, in nM.

I would be grateful if you could share the reported Cmax for "NC(=O)c1ccc2c(c1O)[C@]13CCN(CC4CC4)[C@H](C2)[C@]1(O)CCC(=O)C3" .
69.6

* * *

- measurement.protocol: Rat plasma Cmax of antagonists given with buprenorphine
- condition.description: male, sc, 1 mg/kg
Please respond with reported Cmax for every item in the list.
Numbers only, in ng/mL.

Would you mind giving Cmax for every compound in the list below?
1. O=C1CC[C@@]2(O)[C@H]3Cc4ccc(O)c5c4[C@@]2(CCN3CC2CC2)[C@H]1O5 [Naltrexone, naltrexone]
2. C=C1CC[C@@]2(O)[C@H]3Cc4ccc(O)c5c4[C@@]2(CCN3CC2CC2)[C@H]1O5
3. NC(=O)c1ccc2c(c1O)[C@]13CCN(CC4CC4)[C@H](C2)[C@]1(O)CCC(=O)C3

1: 169; 2: 162; 3: 75.5

* * *

- measurement.protocol: Rat plasma Cmax of antagonists given with buprenorphine
- condition.description: male, sc, 0.03 mg/kg
readout.name: Cmax (ng/mL)
Numbers only, in ng/mL.

Entry C=C1CC[C@@]2(O)[C@H]3Cc4ccc(C(N)=O)c(O)c4[C@@]2(CCN3CC2CC2)C1 [Compound-10] : reported Cmax = ?
2.24
